src = the supplement of paper PMC8671470

Test system: KG-1
Settings: 72 h
Assign IC50 (cell viability) to each entry below.

**Q:** // map CC(C)Cc1sc(N)nc1-c1ccc(P(=O)(O)O)o1 to recorded IC50 (cell viability) (system: KG-1)
**A:** > 10 µM

**Q:** And the next one, CCCc1nn(C)c2c(O)nc(-c3cc(S(=O)(=O)N4CCN(C)CC4)ccc3OCC)nc12 [Sildenafil] ?
**A:** > 10 µM

**Q:** One more compound: Oc1cc(Cl)ccc1Oc1ccc(Cl)cc1Cl [Triclosan]
**A:** > 10 µM

**Q:** Consider next the compound OCCN1CCN(CCCN2c3ccccc3Sc3ccc(Cl)cc32)CC1 [Perphenazine] in the same way.
**A:** 8.85 µM

**Q:** And for CN(C)c1nc(O)c2[nH]cnc2n1 [2-Dimethylamino-6-hydroxypurine] ?
**A:** > 10 µM

**Q:** Now the same for O=C(O)c1cc2sccc2[nH]1 [4H-thieno[3,2-b]pyrrole-5-carboxylic acid]
**A:** > 10 µM

**Q:** Follow-up item: c1ccc2c(c1)OCC(=C1NCCN1)O2 [Idazoxan]
**A:** > 10 µM

**Q:** Same for C=CCc1ccc2c(c1O)C(=O)c1ccccc1C2=O [R162]
**A:** > 10 µM

* * *

System: KU-812
Conditions: 72 h
Consider the following compounds; for each one, report its IC50 (cell viability).

**Q:** Bench note: what IC50 (cell viability) did CCN(CC)CCN(Cc1ccc(-c2ccc(C(F)(F)F)cc2)cc1)C(=O)Cn1c(SCc2ccc(F)cc2)nc(=O)c2c1CCC2 [Darapladib] show?
**A:** 1.98 µM

**Q:** Also need Sc1ncnc2nc[nH]c12 [6-mercaptopurine] , thanks.
**A:** 2.51 µM

**Q:** Again, but for CN(C)c1nc(O)c2[nH]cnc2n1 [2-Dimethylamino-6-hydroxypurine]
**A:** > 10 µM

**Q:** Try the compound CCCc1nn(C)c2c(O)nc(-c3cc(S(=O)(=O)N4CCN(C)CC4)ccc3OCC)nc12 [Sildenafil]
**A:** > 10 µM

**Q:** Would you kindly repeat that for [N-]=[N+]=CC(=O)CC[C@H](N)C(=O)O [6-Diazo-5-oxo-L-norleucine] ?
**A:** > 10 µM

**Q:** One more compound: CC12CCC(O)CC1CCC1C2CCC2(C)C(C3=CC(=O)OC3)CCC12O (stereo not given) [Digitoxigenin]
**A:** 0.368 µM

**Q:** Also c1ccc2c(c1)OCC(=C1NCCN1)O2 [Idazoxan] , if possible.
**A:** > 10 µM

**Q:** Entry to check: C[C@H]1O[C@@H](O[C@H]2[C@@H](O)C[C@H](O[C@H]3[C@@H](O)C[C@H](O[C@H]4CC[C@@]5(C)[C@H](CC[C@@H]6[C@@H]5C[C@@H](O)[C@]5(C)[C@@H](C7=CC(=O)OC7)CC[C@]65O)C4)O[C@@H]3C)O[C@@H]2C)C[C@H](O)[C@@H]1O [Digoxin]
**A:** 0.0647 µM

**Q:** Consider next the compound Oc1cc(Cl)ccc1Oc1ccc(Cl)cc1Cl [Triclosan] in the same way.
**A:** > 10 µM

**Q:** What would you report for O=C(O)C(Cl)Cl [Dichloroacetate] ?
**A:** > 10 µM

**Q:** Check Nc1ncnc2c1ncn2[C@@H]1O[C@H](CSCC[C@H](N)C(=O)O)[C@@H](O)[C@H]1O [S-Adenosyl Homocysteine] too.
**A:** > 10 µM

**Q:** Similarly, NC(=O)c1ncn([C@@H]2O[C@H](CO)[C@@H](O)[C@H]2O)n1 [Ribavirin] ?
**A:** > 10 µM

**Q:** What do you have for O=C(O)CCc1ccc(NCc2cccc(Oc3ccccc3)c2)cc1 [GW9508] ?
**A:** > 10 µM

**Q:** Would you mind doing OCCN1CCN(CCCN2c3ccccc3Sc3ccc(Cl)cc32)CC1 [Perphenazine] as well?
**A:** 6.71 µM

**Q:** Can you check COc1cc2c(NC3CCN(C)CC3)nc(N3CCCN(C)CC3)nc2cc1OCCCN(C)C [UNC0224] next?
**A:** > 10 µM

**Q:** Here is the next compound: CCOC(=O)N1c2ccc(C(F)(F)F)cc2[C@@H](N(Cc2cc(C(F)(F)F)cc(C(F)(F)F)c2)C(=O)OC)C[C@H]1CC [Torcetrapib]
**A:** > 10 µM

**Q:** Same again, this time with CC(C(=O)O)c1cccc(C(=O)c2ccccc2)c1 (stereo not given) [Ketoprofen]
**A:** > 10 µM

**Q:** Next up: Cl.OC[C@H]1NC[C@@H](O)[C@@H](O)[C@@H]1O [1-Deoxymannojirimycin hydrochloride]
**A:** > 10 µM

**Q:** Try this compound too: O=P(O)(O)C(O)(Cn1ccnc1)P(=O)(O)O [Zoledronic acid]
**A:** > 10 µM

**Q:** Then COc1c(C)c2c(c(O)c1C/C=C(\C)CCC(=O)O)C(=O)OC2 [Mycophenolic acid] ?
**A:** 0.954 µM

* * *

System: Mono-Mac-6
Test: cell viability (% survival relative to DMSO control, bortezomib = 0%); higher = less cytotoxic
Details: 10 nM; 72 h
METRIC_NAME: cell viability
Write the quantity with the unit trailing the number.

**Q:** So what does the record say about cell viability for C[C@]12CC[C@H](O)CC1=CC[C@@H]1[C@@H]2CC[C@]2(C)C(c3cccnc3)=CC[C@@H]12 ?
**A:** 101%

**Q:** Same read-out for Oc1cc(Cl)ccc1Oc1ccc(Cl)cc1Cl ?
**A:** 98.3%

**Q:** Another: COc1cc2c(NC3CCN(C)CC3)nc(N3CCCN(C)CC3)nc2cc1OCCCN(C)C
**A:** 116%

**Q:** Try the compound CC(Cc1ccc(O)c(O)c1)C(C)Cc1ccc(O)c(O)c1 (centres undefined)
**A:** 109%

**Q:** Can you handle Cc1ccc(S(=O)(=O)NC2c3ccccc3Oc3ccccc32)cc1 next?
**A:** 95.7%

**Q:** Field entry: C#Cc1cnc(O)nc1O
**A:** 125%

**Q:** Param item: Cc1noc2c1-c1ccccc1C(c1ccc(Cl)cc1)=N[C@H]2CC(N)=O
**A:** 89.3%

**Q:** What about CCOC(=O)[C@H]1O[C@@H]1C(=O)N[C@@H](CC(C)C)C(=O)NCCC(C)C ?
**A:** 108%

**Q:** Moving on to CC(/C=C1\SC(=S)N(CC(=O)O)C1=O)=C\c1ccccc1
**A:** 103%

* * *

Test system: myeloid leukemia patient primary cells Pat.4
Test: area under dose-response curve (viability, 1 nM-10 uM) (fraction (0-1)); higher = more sensitive
Conditions: 72 h
METRIC_NAME: area under dose-response curve

**Q:** For C[C@H]1O[C@@H](O[C@H]2[C@@H](O)C[C@H](O[C@H]3[C@@H](O)C[C@H](O[C@H]4CC[C@@]5(C)[C@H](CC[C@@H]6[C@@H]5C[C@@H](O)[C@]5(C)[C@@H](C7=CC(=O)OC7)CC[C@]65O)C4)O[C@@H]3C)O[C@@H]2C)C[C@H](O)[C@@H]1O , what is its reported area under dose-response curve?
**A:** 0.42

**Q:** Would you mind doing COc1c(C)c2c(c(O)c1C/C=C(\C)CCC(=O)O)C(=O)OC2 as well?
**A:** 0.0528

**Q:** Now the same for CCOC(=O)N1c2ccc(C(F)(F)F)cc2[C@@H](N(Cc2cc(C(F)(F)F)cc(C(F)(F)F)c2)C(=O)OC)C[C@H]1CC
**A:** < 0.0301

**Q:** // query: Nc1ccn([C@@H]2O[C@H](CO)[C@@H](O)[C@@H]2O)c(=O)n1
**A:** 0.142

* * *

Test system: KG-1
Test: cell viability (% survival relative to DMSO control, bortezomib = 0%); higher = less cytotoxic
Settings: 10 nM; 72 h
Task for the reader: assign each of the following compounds its reported cell viability.
# number only, unit % dropped from output

**Q:** What cell viability value was documented for this compound, CC(C(=O)O)C(=O)O [Methylmalonate] ?
**A:** 90.8

**Q:** Same for C[C@H]1O[C@@H](O[C@H]2[C@@H](O)C[C@H](O[C@H]3[C@@H](O)C[C@H](O[C@H]4CC[C@@]5(C)[C@H](CC[C@@H]6[C@@H]5C[C@@H](O)[C@]5(C)[C@@H](C7=CC(=O)OC7)CC[C@]65O)C4)O[C@@H]3C)O[C@@H]2C)C[C@H](O)[C@@H]1O [Digoxin]
**A:** 108

**Q:** What do we get for O=c1c2ccccc2[se]n1-c1ccccc1 [Ebselen] ?
**A:** 89.7

**Q:** Request: O=C1Nc2ccccc2/C1=C\NCCc1ccc(O)c(O)c1 [AC1NZZMF]
**A:** 106

**Q:** Please answer likewise for Clc1ccc(COC(Cn2ccnc2)c2ccc(Cl)cc2Cl)cc1 (stereo not drawn) [Econazole]
**A:** 95.3

**Q:** Same question, C=CCc1ccc2c(c1O)C(=O)c1ccccc1C2=O [R162] this time
**A:** 98

**Q:** Next compound up: NC(=O)c1ncn([C@@H]2O[C@H](CO)[C@@H](O)[C@H]2O)n1 [Ribavirin]
**A:** 110

**Q:** Next up: [N-]=[N+]=CC(=O)CC[C@H](N)C(=O)O [6-Diazo-5-oxo-L-norleucine]
**A:** 95.2
